Reported interaction score is given for each of the following binders.
- Assayed target: T1, 4H2576-bN
- T1 chain: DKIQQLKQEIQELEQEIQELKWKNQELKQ
- Experiment notes: two-hybrid library CCNG1;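 note: natural log of median RNA to DNA barcode read ratio; higher means stronger binding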

In the examples that follow, each entry is paired with its recorded interaction score.
stdin: Value lookup for interaction score; key = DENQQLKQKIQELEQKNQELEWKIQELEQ [4H1845-bN]
stdout: -1.34

stdin: Repeat for the following binder: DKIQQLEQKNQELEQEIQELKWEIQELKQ [4H2442-bN]
stdout: -0.32

stdin: Entry to check: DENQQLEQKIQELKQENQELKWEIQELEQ [4H1369-bN]
stdout: -0.023

Now let's try a different one.
stdin: Any idea what its interaction score is? The binder is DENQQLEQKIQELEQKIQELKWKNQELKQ [4H1328-bN]
stdout: 1.57
